Reference source: patent US9278982B2

# System: MDA-MB468
# Assay name: Doxorubicin sensitization, MTS viability assay
# Type: cell-based, human
# Assay setup: Homo sapiens, MDA-MB-468, vehicle 72 h, doxorubicin 4 h, viability after 2 days, read-out: IC50 of doxorubicin treatment, Vehicle
pIC50: −log10 of the molar value.
Quantity measured: pIC50

* COc1cccc2c1C(=O)c1c(O)c3c(c(O)c1C2=O)C[C@@](O)(C(=O)CO)C[C@@H]3O[C@H]1C[C@H](N)[C@H](O)[C@H](C)O1 [doxorubicin, reference compound] | 6.60

---

Items are presented alongside their recorded inhibition at 2 µM.
# Test target: TMPK (Homo sapiens, UniProt P23919)
# Sequence (P23919 1-212): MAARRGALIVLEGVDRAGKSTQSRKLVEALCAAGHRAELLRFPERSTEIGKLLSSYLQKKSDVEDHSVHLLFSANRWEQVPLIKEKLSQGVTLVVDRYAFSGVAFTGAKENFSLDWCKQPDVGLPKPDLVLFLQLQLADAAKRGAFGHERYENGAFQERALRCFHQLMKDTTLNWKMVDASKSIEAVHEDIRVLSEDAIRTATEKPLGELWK
# Assay name: In vitro TMPK inhibitory activity of TMPK inhibitor derivatives (inhibition yield)
# Format: biochemical
# Parameters: GST (N, cleaved yes); made in house; host or cells: E. coli JM109 (pGEX-2T-hTMPK), inferred
# Assay setup: 2 μM; n=3 or 6; read-out: inhibition yield, normalized to compound 21 (YMU1) = 100%
Quantity measured: inhibition at 2 µM (%)

• O=C(Cn1sc2ccccc2c1=O)N1CCN(C(=O)Oc2ccc([N+](=O)[O-])cc2)CC1 = 129
• Cc1cc(C)c2c(=O)[nH]sc2n1 = 28
• Cc1cc(C)c2c(OCC(=O)O)nsc2n1 = 16.4
• O=C(CN1C(=O)c2ccccc2S1(=O)=O)N1CCNCC1 = 11.8
• COC(=O)COc1nsc2nc(C)cc(C)c12 = 7.8

---

# Test system: CL-1-0
# Assay name: Doxorubicin sensitization, MTS viability assay
# Assay type: cell-based, human
# Assay setup: Homo sapiens, CL1-0, vehicle 72 h, doxorubicin 4 h, viability after 2 days, read-out: IC50 of doxorubicin treatment, Vehicle
Quantity measured: IC50 (µM)

* COc1cccc2c1C(=O)c1c(O)c3c(c(O)c1C2=O)C[C@@](O)(C(=O)CO)C[C@@H]3O[C@H]1C[C@H](N)[C@H](O)[C@H](C)O1 [doxorubicin, reference compound] | 4.9

---

# Test target: TMPK (Homo sapiens)
# Sequence (P23919 1-212): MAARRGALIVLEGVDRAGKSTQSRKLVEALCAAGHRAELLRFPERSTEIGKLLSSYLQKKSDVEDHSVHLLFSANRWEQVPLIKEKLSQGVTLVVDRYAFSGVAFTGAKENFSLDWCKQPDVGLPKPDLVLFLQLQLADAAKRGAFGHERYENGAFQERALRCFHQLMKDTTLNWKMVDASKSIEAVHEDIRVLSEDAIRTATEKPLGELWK
Quantity measured: IC50

* CCOC(=O)N1CCN(C(=O)Cn2sc3nc(C)cc(C)c3c2=O)CC1 | 610 nM

---

# Tested on: SaoS2
# Assay name: Doxorubicin sensitization, MTS viability assay
# Format: cell-based, human
# Assay setup: Homo sapiens, SAOS-2, vehicle 72 h, doxorubicin 4 h, viability after 2 days, read-out: IC50 of doxorubicin treatment, Vehicle
Quantity measured: IC50 (µM)

• COc1cccc2c1C(=O)c1c(O)c3c(c(O)c1C2=O)C[C@@](O)(C(=O)CO)C[C@@H]3O[C@H]1C[C@H](N)[C@H](O)[C@H](C)O1 [doxorubicin, reference compound] = 7.83

---

Items are presented alongside their recorded inhibition at 2 µM.
# Test target: TMPK (Homo sapiens, UniProt P23919)
# Assay name: In vitro TMPK inhibitory activity of TMPK inhibitor derivatives (inhibition yield)
# Format: biochemical
# Parameters: GST (N, cleaved yes); made in house; host or cells: E. coli JM109 (pGEX-2T-hTMPK), inferred
# Assay setup: 2 μM; n=3 or 6; read-out: inhibition yield, normalized to compound 21 (YMU1) = 100%
Quantity measured: inhibition at 2 µM (%)

* CCOC(=O)N1CCN(C(=O)Cn2sc3nc(C)cc(C)c3c2=O)CC1 | 100
* Cc1ccc2c(=O)[nH]sc2n1 | 76.5
* O=C(Cn1sc2ccccc2c1=O)N1CCN(C(=O)OCc2ccccc2)CC1 | 127
* CC(C)(C)OC(=O)N1CCN(C(=O)CN2C(=O)c3ccccc3S2(=O)=O)CC1 | 10.1
* Cc1cc(C)c2c(=O)n(CC(=O)O)sc2n1 | 47
* O=C(Cn1sc2ccccc2c1=O)N1CCN(C(=O)Cn2sc3ccccc3c2=O)CC1 | 118
* CCOC(=O)N1CCN(C(=O)N2Cc3ccccc3C2=O)CC1 | 92.9
* CCOC(=O)N1CCN(C(=O)CCCn2sc3ccccc3c2=O)CC1 | 0
* Cc1cc(C)c2c(=O)n(CC(=O)N3CCNCC3)sc2n1 | 99.5
* Cc1cc(C)c2c(OCC(=O)N3CCOCC3)nsc2n1 | 16
* Cc1cc(C)c2c(=O)n(CC(=O)N3CCOCC3)sc2n1 | 100
* CCOC(=O)N1CCN(C(=O)COc2nsc3nc(C)cc(C)c23)CC1 | 14.7
* O=C(O)Cn1sc2ccccc2c1=O | 29.1
* Cc1cc(C)c2c(=O)n(CC(=O)N3CCN(C(=O)OC(C)(C)C)CC3)sc2n1 | 112
* C=CCN1CCN(C(=O)Cn2sc3ccccc3c2=O)CC1 | 102
* O=C(Cn1sc2ccccc2c1=O)N1CCNCC1 | 96.8
* COC(=O)Cn1sc2ccccc2c1=O | 96
* COC(=O)Cn1sc2nc(C)cc(C)c2c1=O | 98.3
* CC(C)(C)OC(=O)N1CCN(C(=O)CN2C(=O)c3ccccc3C2=O)CC1 | 51.4
* CC(C)(C)OC(=O)N1CCN(C(=O)Cn2sc3ccccc3c2=O)CC1 | 124

---

# Test target: purified human thymidylate kinase (Homo sapiens, UniProt P23919)
# Construct: GST (N, cleaved yes); made in house; host or cells: E. coli JM109 (pGEX-2T-hTMPK)
# Assay name: NADH-coupled TMPK assay (kinetic parameters)
# Type: biochemical
# Assay setup: ATP 1 mM, TMP varied 2~200 μM; 10 min pre-incubation; average of three YMU1 concentrations
pKi: −log10 of the molar value.
Quantity measured: pKi

- CCOC(=O)N1CCN(C(=O)Cn2sc3nc(C)cc(C)c3c2=O)CC1: 6.66

---

# System: HCC1037
# Assay name: Doxorubicin sensitization, MTS viability assay
# Format: cell-based, human
# Assay setup: Homo sapiens, vehicle 72 h, doxorubicin 4 h, viability after 2 days, read-out: IC50 of doxorubicin treatment, Vehicle
pIC50: −log10 of the molar value.
Quantity measured: pIC50

- COc1cccc2c1C(=O)c1c(O)c3c(c(O)c1C2=O)C[C@@](O)(C(=O)CO)C[C@@H]3O[C@H]1C[C@H](N)[C@H](O)[C@H](C)O1 [doxorubicin, reference compound]: 5.26
